Entries and their measured inhibition at 1 µM follow.
system: U937 cells; experiment: MTT antiproliferative assay, U937 cells; conditions: Homo sapiens, U-937, read-out: U937 percentage inhibitory rate, 1 µM; U937 cells; MTT; mean of three experiments
Numeric answer only, unit % assumed.

Example entries and their recorded answers appear below.
# inhibition at 1 µM lookup, item `O=C(CCCNC(=O)c1ccc(-c2cc3c(cc2NC(=O)c2cccc(Br)c2)OCO3)cc1)NO`
21

Field request: inhibition at 1 µM | item: `O=C(NO)c1ccc(CNC(=O)c2ccc(-c3cc4c(cc3NC(=O)c3cccc(C(F)(F)F)c3)OCO4)cc2)cc1`
78.2

# inhibition at 1 µM lookup, item `O=C(CCCNC(=O)c1ccc(-c2cc3c(cc2NC(=O)c2ccccc2Cl)OCO3)cc1)NO`
23

Consider the additional compound presented here.
I'd like to know its inhibition at 1 µM. The compound in question is `O=C(CCCNC(=O)c1ccc(-c2cc3c(cc2NC(=O)c2ccccc2)OCO3)cc1)NO`
25.6

---

system: Hela nucleus extract containing a mixture of HDAC isoforms; experiment: HDAC enzyme inhibitory assay with Hela nucleus extract; type: biochemical; conditions: 1 µM, mean of three experiments
readout: HDACs percentage inhibitory rate
Note to self: number, then unit, no commentary.

Entry O=C(NO)c1ccc(CNC(=O)c2ccc(-c3cc4c(cc3NC(=O)c3cccc(F)c3)OCO4)cc2)cc1 [Fb-6] has what HDACs percentage inhibitory rate?
58.36 ± 5.06%

Any idea what HDACs percentage inhibitory rate was measured for COc1ccc(C(=O)Nc2cc3c(cc2-c2ccc(C(=O)NCc4ccc(C(=O)NO)cc4)cc2)OCO3)cc1 [Fb-2] ?
52.30 ± 2.26%

Tell me the measured HDACs percentage inhibitory rate of Cc1ccccc1C(=O)Nc1cc2c(cc1-c1ccc(C(=O)NCc3ccc(C(=O)NO)cc3)cc1)OCO2 [Fb-9] , please.
35.97 ± 3.07%

// lookup HDACs percentage inhibitory rate for O=C(CCCNC(=O)c1ccc(-c2cc3c(cc2NC(=O)c2ccc(F)c(C(F)(F)F)c2)OCO3)cc1)NO [Fa-23]
20.29 ± 0.29%

Can you share its HDACs percentage inhibitory rate? I mean this compound: O=C(CCCNC(=O)c1ccc(-c2cc3c(cc2NC(=O)c2ccccc2F)OCO3)cc1)NO [Fa-8]
5.32 ± 1.72%

HDACs percentage inhibitory rate for O=C(CCCNC(=O)c1ccc(-c2cc3c(cc2NC(=O)c2ccc(F)cc2C(F)(F)F)OCO3)cc1)NO [Fa-18] ?
31.47 ± 3.47%

Record request: HDACs percentage inhibitory rate value, item O=C(CCCNC(=O)c1ccc(-c2cc3c(cc2NC(=O)c2ccc(F)cc2)OCO3)cc1)NO [Fa-3]
9.22 ± 2.28%
